Protocol Notes: Pharmacokinetics after repeated oral administration of 35 μg/kg of fluralaner in dogs after feeding
Assay type: in vivo, beagle dogs
Measurement Conditions: beagle, dog, plasma, po, 35 ug/kg, oral 35 μg/kg Days 0-3, dogs, n=6; read-out: AUC 0-inf, Mean
Measured Parameter: AUC(0-inf)

Query string: # query: AUC(0-inf) of entry Cc1cc(C2=NOC(c3cc(Cl)cc(Cl)c3)(C(F)(F)F)C2)ccc1C(=O)NCC(=O)NCC(F)(F)F (stereo not shown)
Result string: 28100 ng·h/mL

* * *

Protocol Notes: Pharmacokinetics after repeated oral administration of 250 μg/kg and 35 μg/kg of fluralaner in dogs after feeding
Type: in vivo, beagle dogs
Measurement Conditions: beagle, dog, plasma, po, 240 h; oral 250 μg/kg Days 0-3, 35 μg/kg Days 4-9, 600 μg/kg Day 11, dogs; read-out: fluralaner concentration levels, individual animal
Measured Parameter: concentration at 240 h
Please state the number and follow it with the unit.

Query string: # query: concentration at 240 h of entry Cc1cc(C2=NOC(c3cc(Cl)cc(Cl)c3)(C(F)(F)F)C2)ccc1C(=O)NCC(=O)NCC(F)(F)F (stereo not shown)
Result string: 386 ng/mL

* * *

Protocol Notes: Pharmacokinetics after repeated oral administration of 250 μg/kg and 35 μg/kg of fluralaner in dogs after feeding
Assay type: in vivo, beagle dogs
Measurement Conditions: beagle, dog, plasma, po, 216 h; oral 250/35/600 μg/kg regimen, dogs, n=6; read-out: fluralaner concentration levels, GeoMean
Protocol: The first objective is to obtain the pharmacokinetic parameters after repeated oral administration of […] and 35 μg/kg of fluralaner in dogs after feeding. […] On Days 0, 1, 2 and 3, all dogs assigned to group 2 received the Investigational Veterinary Product. […] The quantity of Investigational Veterinary Product and control product administered was calculated according to the dog's individual body weight measured on Day −1. […] Cmax the observed maximum concentration in plasma measured after dosing. […]
Measured Parameter: concentration at 216 h (ng/mL)
I only need the number, in ng/mL, no unit after it.

Query string: # query: concentration at 216 h of entry Cc1cc(C2=NOC(c3cc(Cl)cc(Cl)c3)(C(F)(F)F)C2)ccc1C(=O)NCC(=O)NCC(F)(F)F (stereo not shown) [fluralaner, Fluralaner]
Result string: 515

* * *

Protocol Notes: Pharmacokinetics after repeated oral administration of 250 μg/kg and 35 μg/kg of fluralaner in dogs after feeding
Format: in vivo, beagle dogs
Measurement Conditions: beagle, dog, plasma, po, 96 h; oral 250/35/600 μg/kg regimen, dogs, n=6; read-out: fluralaner concentration levels, Maximum
Measured Parameter: concentration at 96 h
Please state the number and follow it with the unit.

Query string: # query: concentration at 96 h of entry Cc1cc(C2=NOC(c3cc(Cl)cc(Cl)c3)(C(F)(F)F)C2)ccc1C(=O)NCC(=O)NCC(F)(F)F (stereo not shown)
Result string: 602 ng/mL

* * *

Protocol Notes: Pharmacokinetics after repeated oral administration of 35 μg/kg of fluralaner in dogs after feeding
Type: in vivo, beagle dogs
Measurement Conditions: beagle, dog, plasma, po, 35 μg/kg, 360 h; oral 35 μg/kg Days 0-3, dogs, n=6; read-out: fluralaner concentration levels, GeoMean
Measured Parameter: concentration at 360 h (ng/mL)
I only need the number, in ng/mL, no unit after it.

Query string: # query: concentration at 360 h of entry Cc1cc(C2=NOC(c3cc(Cl)cc(Cl)c3)(C(F)(F)F)C2)ccc1C(=O)NCC(=O)NCC(F)(F)F (stereo not shown) [fluralaner, Fluralaner]
Result string: 39.5

* * *

Protocol Notes: Pharmacokinetic profile of Bravecto spot-on after single topical administration on dogs
Measurement Conditions: dog, in vivo, topical or ocular, 6250 ug/kg, Bravecto spot-on single topical 6250 μg/kg, dogs without 86D 6FA, n=5; read-out: fluralaner AUC0-t, Mean
Measured Parameter: AUC(0-t) (µg·h/mL)
I only need the number, in µg·h/mL, no unit after it.

Query string: # query: AUC(0-t) of entry Cc1cc(C2=NOC(c3cc(Cl)cc(Cl)c3)(C(F)(F)F)C2)ccc1C(=O)NCC(=O)NCC(F)(F)F (stereo not shown) [fluralaner, Fluralaner]
Result string: 181

* * *

Protocol Notes: Pharmacokinetics after repeated oral administration of 35 μg/kg of fluralaner in dogs after feeding
Assay type: in vivo, beagle dogs
Measurement Conditions: beagle, dog, plasma, po, 35 μg/kg, 672 h; oral 35 μg/kg Days 0-3, dogs, n=6; read-out: fluralaner concentration levels, Maximum
Measured Parameter: concentration at 672 h
Please state the number and follow it with the unit.

Query string: # query: concentration at 672 h of entry Cc1cc(C2=NOC(c3cc(Cl)cc(Cl)c3)(C(F)(F)F)C2)ccc1C(=O)NCC(=O)NCC(F)(F)F (stereo not shown)
Result string: 16 ng/mL

* * *

Protocol Notes: Pharmacokinetics after repeated oral administration of 250 μg/kg and 35 μg/kg of fluralaner in dogs after feeding
Format: in vivo, beagle dogs
Measurement Conditions: beagle, dog, plasma, po, 720 h; oral 250/35/600 μg/kg regimen, dogs, n=6; read-out: fluralaner concentration levels, GeoMean
Measured Parameter: concentration at 720 h (ng/mL)
I only need the number, in ng/mL, no unit after it.

Query string: # query: concentration at 720 h of entry Cc1cc(C2=NOC(c3cc(Cl)cc(Cl)c3)(C(F)(F)F)C2)ccc1C(=O)NCC(=O)NCC(F)(F)F (stereo not shown) [fluralaner, Fluralaner]
Result string: 262

* * *

Protocol Notes: Pharmacokinetics after repeated oral administration of 35 μg/kg of fluralaner in dogs after feeding
Format: in vivo, beagle dogs
Measurement Conditions: beagle, dog, plasma, po, 35 μg/kg, 672 h; oral 35 μg/kg Days 0-3, dogs, n=6; read-out: fluralaner concentration levels, Median
Measured Parameter: concentration at 672 h
Please state the number and follow it with the unit.

Query string: # query: concentration at 672 h of entry Cc1cc(C2=NOC(c3cc(Cl)cc(Cl)c3)(C(F)(F)F)C2)ccc1C(=O)NCC(=O)NCC(F)(F)F (stereo not shown) [fluralaner, Fluralaner]
Result string: 12.8 ng/mL

* * *

Protocol Notes: Pharmacokinetics after repeated oral administration of 250 μg/kg and 35 μg/kg of fluralaner in dogs after feeding
Type: in vivo, beagle dogs
Measurement Conditions: beagle, dog, plasma, po, 144 h; oral 250 μg/kg Days 0-3, 35 μg/kg Days 4-9, 600 μg/kg Day 11, dogs; read-out: fluralaner concentration levels, individual animal
Measured Parameter: concentration at 144 h (ng/mL)
I only need the number, in ng/mL, no unit after it.

Query string: # query: concentration at 144 h of entry Cc1cc(C2=NOC(c3cc(Cl)cc(Cl)c3)(C(F)(F)F)C2)ccc1C(=O)NCC(=O)NCC(F)(F)F (stereo not shown) [fluralaner, Fluralaner]
Result string: 497

* * *

Protocol Notes: Pharmacokinetics after repeated oral administration of 35 μg/kg of fluralaner in dogs after feeding
Format: in vivo, beagle dogs
Measurement Conditions: beagle, dog, plasma, po, 35 μg/kg, 672 h; oral 35 μg/kg Days 0-3, dogs, n=6; read-out: fluralaner concentration levels, GeoMean
Measured Parameter: concentration at 672 h (ng/mL)
I only need the number, in ng/mL, no unit after it.

Query string: # query: concentration at 672 h of entry Cc1cc(C2=NOC(c3cc(Cl)cc(Cl)c3)(C(F)(F)F)C2)ccc1C(=O)NCC(=O)NCC(F)(F)F (stereo not shown) [fluralaner, Fluralaner]
Result string: 12.5

* * *

Protocol Notes: Pharmacokinetics after repeated oral administration of 35 μg/kg of fluralaner in dogs after feeding
Assay type: in vivo, beagle dogs
Measurement Conditions: beagle, dog, plasma, po, 35 μg/kg, 480 h; oral 35 μg/kg Days 0-3, dogs, n=6; read-out: fluralaner concentration levels, Median
Measured Parameter: concentration at 480 h (ng/mL)
I only need the number, in ng/mL, no unit after it.

Query string: # query: concentration at 480 h of entry Cc1cc(C2=NOC(c3cc(Cl)cc(Cl)c3)(C(F)(F)F)C2)ccc1C(=O)NCC(=O)NCC(F)(F)F (stereo not shown) [fluralaner, Fluralaner]
Result string: 23.2

* * *

Protocol Notes: Pharmacokinetics after repeated oral administration of 35 μg/kg of fluralaner in dogs after feeding
Type: in vivo, beagle dogs
Measurement Conditions: beagle, dog, plasma, po, 35 μg/kg, 48 h; oral 35 μg/kg Days 0-3, dogs, n=6; read-out: fluralaner concentration levels, GeoMean
Measured Parameter: concentration at 48 h (ng/mL)
I only need the number, in ng/mL, no unit after it.

Query string: # query: concentration at 48 h of entry Cc1cc(C2=NOC(c3cc(Cl)cc(Cl)c3)(C(F)(F)F)C2)ccc1C(=O)NCC(=O)NCC(F)(F)F (stereo not shown)
Result string: 32.8

* * *

Protocol Notes: Pharmacokinetics after repeated oral administration of 250 μg/kg and 35 μg/kg of fluralaner in dogs after feeding
Format: in vivo, beagle dogs
Measurement Conditions: beagle, dog, plasma, po, 240 h; oral 250/35/600 μg/kg regimen, dogs, n=6; read-out: fluralaner concentration levels, GeoMean
Measured Parameter: concentration at 240 h (ng/mL)
I only need the number, in ng/mL, no unit after it.

Query string: # query: concentration at 240 h of entry Cc1cc(C2=NOC(c3cc(Cl)cc(Cl)c3)(C(F)(F)F)C2)ccc1C(=O)NCC(=O)NCC(F)(F)F (stereo not shown) [fluralaner, Fluralaner]
Result string: 469
